Data provenance: ChEMBL document CHEMBL1201862

Test system: RPMI-8226
Experiment: NCI tumour cell line growth inhibition, 48 h
Calls of active or inactive are those of the source. Cut-off read from the data, not from the text of the source: active = GI50 up to about 1.1 µM and inactive = higher. Where a SMILES comes first, the peptide text is derived from it. [ ]: non-standard residue; d: D form. The star is where a group is joined. Phe(4-NO2) = N[CH](Cc1ccc([N+](=O)[O-])cc1)C(=O)O; Cbz = O=C(OCc1ccccc1)*
Response enum: TRUE for active, FALSE for inactive

Kindly provide the recorded test outcome for the following compound: Cc1occc1/C(S)=N\c1ccc(Cl)c(C(=O)OCC2CC2)c1
FALSE

Kindly provide the recorded test outcome for the following compound: CCCCC(C)C(OC(=O)CC(CC(=O)O)C(=O)O)C(CC(C)CC(O)CCCCC(O)CC(O)C(C)N)OC(=O)CC(CC(=O)O)C(=O)O (stereo not given)
FALSE

Kindly provide the recorded test outcome for the following compound: O=c1n(N=[S+]([O-])(c2ccccc2)c2ccccc2)c(=O)n2n1C1C=CC2CC1
FALSE

Kindly provide the recorded test outcome for the following compound: [O-][Cl+3]([O-])([O-])[O-].c1ccc(-c2csc3c4ccccc4c4ccccc4[n+]23)cc1
FALSE

Kindly provide the recorded test outcome for the following compound: COCCO [2-METHOXYETHANOL]
FALSE

Kindly provide the recorded test outcome for the following compound: COc1ccc(C(CC(=O)c2ccc(O)cc2)C(C(=O)c2ccc(O)cc2)C(c2ccc(OC)cc2)C2C(=O)NC(=S)NC2=O)cc1 (stereo not given)
FALSE

Kindly provide the recorded test outcome for the following compound: CC(=O)Nc1[nH]c(=O)[nH]c(=O)c1N(C(C)=O)C(C)=O
FALSE

Kindly provide the recorded test outcome for the following compound: COc1cc(/C=C\c2ccc(OC(C)=O)cc2)cc(OC)c1OC
TRUE

Kindly provide the recorded test outcome for the following compound: Cc1cc2c(ccc[n+]2[O-])[n+]([O-])c1
FALSE

Kindly provide the recorded test outcome for the following compound: CCOC1=NC(O)c2cccn2-c2sccc21 (stereo not given)
FALSE

Kindly provide the recorded test outcome for the following compound: C/C(=C1\N=C(c2ccccc2)OC1=O)c1ccccc1
FALSE

Kindly provide the recorded test outcome for the following compound: O=C1OC(=O)C2C3CCC(O3)C12 (stereo not given)
FALSE

Kindly provide the recorded test outcome for the following compound: O=C1c2cccnc2-c2nccc3c2c1nc1cc(Br)ccc13
TRUE

Kindly provide the recorded test outcome for the following compound: CCOC(=O)CCC(NC(=O)OCc1ccccc1)C(=O)NC(CCC(=O)OCC)C(=O)NC(Cc1ccc([N+](=O)[O-])cc1)C(=O)NC(CCC(=O)OCC)C(=O)NC(CCC(=O)OCC)C(=O)OCC (stereo not given) (Cbz-E(OEt)E(OEt)[Phe(4-NO2)]E(OEt)E(OEt)-OEt; configuration not given here)
FALSE

Kindly provide the recorded test outcome for the following compound: CCOC(=O)c1c(C)[n+]([O-])c2cc(Cl)c(Cl)cc2[n+]1[O-]
FALSE

====

Would you mind telling me the reported GI50 of each entry?
Tested on: EKVX
Experiment: NCI tumour cell line growth inhibition, 48 h
The source made the active and inactive calls. Cut-off read from the data, not from the text of the source: active = GI50 up to about 1.1 µM and inactive = higher.

Look at this compound and give its reported GI50. Nc1cc2c(nc3c4ccccc4c(N)cc3[n+]2-c2cccc3ccccc23)c2ccccc12.Nc1cc2c(nc3c4ccccc4ccc3[n+]2-c2cccc3ccccc23)c2ccccc12
1.61 µM (inactive)

Look at this compound and give its reported GI50. COc1cc2ccc(CC(N)=O)cc2cc1OC
> 100 µM (inactive)

Look at this compound and give its reported GI50. C=CCOC(C)n1c(C)cc(=O)n(C(C)OCC=C)c1=O (stereo not drawn)
> 100 µM (inactive)

Look at this compound and give its reported GI50. CN1C(c2ccccc2)CS(=O)(=O)CS1(=O)=O (stereo not drawn)
> 100 µM (inactive)

Look at this compound and give its reported GI50. CN1C(=O)CC(c2cccc(C3CC(=O)N(C)C3=O)n2)C1=O (stereo not drawn)
> 100 µM (inactive)

Look at this compound and give its reported GI50. CC(CC(C)[C@H]1CCC2[C@H]3C(CC(=O)[C@@]21C)[C@@]1(C)CCC(O)C[C@H]1C[C@@H]3O)C(=O)O (stereo partly drawn)
> 100 µM (inactive)

Look at this compound and give its reported GI50. COc1ccc(C(=O)/C=C/c2ccc(OCC(=O)N3CCN(c4ccccc4)CC3)cc2)cc1OC
7.01 µM (inactive)

Look at this compound and give its reported GI50. CC1=NN(c2nc(N)nc(-c3cc4ccccc4oc3=N)n2)C(C)(C)C1
14.7 µM (inactive)

====

Tested on: SW-620
Assay: NCI tumour cell line growth inhibition, 48 h
Calls of active or inactive are those of the source. Rule as the data show it: active = GI50 up to about 1.1 µM and inactive = higher.
MEASURED_ENDPOINT: GI50

Test system SW-620; read-out GI50; what value for COc1cc2c[n+](C)c3c4ccccc4ccc3c2cc1OC.COc1cc2cnc3c4ccccc4ccc3c2cc1OC ?
4.34 µM (inactive)

Test system SW-620; read-out GI50; what value for Cc1cc(S(=O)(=O)/N=C2\NCCN2Cc2ccccc2)c(S)cc1Cl ?
> 100 µM (inactive)

Test system SW-620; read-out GI50; what value for Cc1cc(O)cc(O)c1C(=O)O[C@]1(C)C(=O)C=C2C=C(/C=C/C(=O)O)OC=C2C1=O ?
58.3 µM (inactive)

====

Tested on: EKVX
Assay: NCI tumour cell line growth inhibition, 48 h
The source made the active and inactive calls. Rule as the data show it: active = GI50 up to about 1.1 µM and inactive = higher.
Would you mind telling me the reported GI50 of each entry?

Test system EKVX; read-out GI50; what value for Cc1cc2c(ccc[n+]2[O-])[n+]([O-])c1 ?
> 100 µM (inactive)

Test system EKVX; read-out GI50; what value for [O-][Cl+3]([O-])([O-])[O-].c1ccc(-c2csc3c4ccccc4c4ccccc4[n+]23)cc1 ?
8.79 µM (inactive)

Test system EKVX; read-out GI50; what value for CCN(CC)CCC/N=c1\c2cc(OC)ccc2[nH]c2c([N+](=O)[O-])ccc(NCCCN(CC)CC)c12 ?
3.97 µM (inactive)

Test system EKVX; read-out GI50; what value for O=C1OCC2=C1C(c1ccc3c(c1)OCO3)c1cc3c(cc1O2)OCO3 (stereo not given) ?
1.72 µM (inactive)

Test system EKVX; read-out GI50; what value for COC1(OC)C2(Cl)CCC1(Cl)C(OC(C)=O)C2 (stereo not given) ?
> 100 µM (inactive)

Test system EKVX; read-out GI50; what value for O=C(O)CN(c1ccccc1)S(=O)(=O)c1ccc([N+](=O)[O-])cc1 ?
> 100 µM (inactive)

Test system EKVX; read-out GI50; what value for CCCCCCOP(=O)(OCCCCCC)OC(C(=O)OC)C(F)(F)F (stereo not given) ?
> 100 µM (inactive)

Test system EKVX; read-out GI50; what value for Cc1ccc(S(=O)(=O)N/N=C(\c2nc3ccc([N+](=O)[O-])cc3[nH]c2=O)C(O)c2ccc([N+](=O)[O-])cc2)cc1 (stereo not given) ?
> 100 µM (inactive)

Test system EKVX; read-out GI50; what value for CCCCCCCC(=O)NCC(O)CNC(=O)CCCCCCC ?
> 100 µM (inactive)

Test system EKVX; read-out GI50; what value for CN1N=C2c3ccccc3OC(c3ccccc3)[C@H]2C1c1ccccc1 (stereo not given in full) ?
> 100 µM (inactive)

Test system EKVX; read-out GI50; what value for CC1=NN(C(=O)c2ccccc2O)C(c2ccccc2Cl)C1C(=O)Nc1ccccc1 (stereo not given) ?
1.7 µM (inactive)

Test system EKVX; read-out GI50; what value for COc1cc2c[n+](C)c3c4ccccc4ccc3c2cc1OC.COc1cc2cnc3c4ccccc4ccc3c2cc1OC ?
2.2 µM (inactive)

Test system EKVX; read-out GI50; what value for CCOC(CCNCC(OCC)OCC)OCC ?
> 10 µM (inactive)

Test system EKVX; read-out GI50; what value for O=C(CSc1nc2ccc(I)cc2c(=O)n1Cc1ccccc1)NN1C(=O)CCC1=O ?
34.1 µM (inactive)

Test system EKVX; read-out GI50; what value for COc1cc(Cc2cc3c(c(C(=O)O)c2Br)OCO3)cc(OC)c1OC ?
> 100 µM (inactive)

Test system EKVX; read-out GI50; what value for O=c1cc(/N=N\c2ccc(Br)cc2)[nH]c(=S)[nH]1 ?
19.8 µM (inactive)

Test system EKVX; read-out GI50; what value for CCOC(=O)c1c(C)[n+]([O-])c2cc(Cl)c(Cl)cc2[n+]1[O-] ?
24.1 µM (inactive)

Test system EKVX; read-out GI50; what value for O=C1OC2C=CCC1C2 (stereo not given) ?
> 100 µM (inactive)

Test system EKVX; read-out GI50; what value for O=[N+]([O-])c1ccc(/N=N\c2c(O)c(S(=O)(=O)O)cc3cc(S(=O)(=O)O)ccc23)cc1 ?
> 100 µM (inactive)

Test system EKVX; read-out GI50; what value for O=C1OC(CC(=O)c2ccccc2Cl)C(Cl)=C1Cl (stereo not given) ?
> 100 µM (inactive)

Test system EKVX; read-out GI50; what value for CCOC(=O)CCc1ccc(NC(=O)/C=C/c2ccc([N+](=O)[O-])o2)cc1 ?
> 100 µM (inactive)

Test system EKVX; read-out GI50; what value for CCOC(=O)CCc1c(C)nc2c(C)c3c([nH]c4ccc(Cl)cc43)c(C)c2c1O ?
10.2 µM (inactive)

Test system EKVX; read-out GI50; what value for C/C(CC(=O)Nc1cccc([N+](=O)[O-])c1)=N/NC(N)=S ?
> 100 µM (inactive)

Test system EKVX; read-out GI50; what value for Oc1c2cc(Cl)cc1COCc1cc(Cl)cc(c1O)COCc1cc(Cl)cc(c1O)COC2 ?
54 µM (inactive)

Test system EKVX; read-out GI50; what value for CCCCC(C)C(OC(=O)CC(CC(=O)O)C(=O)O)C(CC(C)CC(O)CCCCC(O)CC(O)C(C)N)OC(=O)CC(CC(=O)O)C(=O)O (stereo not given) ?
> 100 µM (inactive)

Test system EKVX; read-out GI50; what value for C=C1C(=O)C23C(O)CC4C(C)(C)CCC(O)C4(C)C2CC(OC(C)=O)C1[C@H]3O (stereo not given in full) ?
4.88 µM (inactive)

Test system EKVX; read-out GI50; what value for O=c1n(N=[S+]([O-])(c2ccccc2)c2ccccc2)c(=O)n2n1C1C=CC2CC1 ?
> 100 µM (inactive)

Test system EKVX; read-out GI50; what value for CCc1ccccc1N1CCN(C(=O)c2cc(OC)c(OC)c(OC)c2)CC1 ?
1.39 µM (inactive)

Test system EKVX; read-out GI50; what value for CN(C)c1ccc(/C=C2\C[N+](C)(C)C/C(=C\c3ccc(N(C)C)cc3)C2=O)cc1 ?
38 µM (inactive)

Test system EKVX; read-out GI50; what value for Cc1ccc(NC(=O)CCC(=O)C2CC(=O)CC/C2=N\NC(=O)c2cc3ccccc3cc2O)cc1C (stereo not given) ?
29 µM (inactive)
